The measured values listed here are drawn from the RNAGym collection of RNA variant scans (doi:10.1093/molbev/msab373).

B1: Azoarcus group I ribozyme (parent)
chain: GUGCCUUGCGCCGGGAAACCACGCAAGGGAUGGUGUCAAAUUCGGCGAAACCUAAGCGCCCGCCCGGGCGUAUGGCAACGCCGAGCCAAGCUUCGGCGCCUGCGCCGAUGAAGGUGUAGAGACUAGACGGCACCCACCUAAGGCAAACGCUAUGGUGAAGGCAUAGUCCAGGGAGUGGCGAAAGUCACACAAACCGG

# Variants of: B1
# experimental-protocol: reverse-splicing fitness (ratio to wild type); higher = more active; in vitro selection; Mg2+ level not given
Threshold rule: reverse-splicing fitness greater than or equal to 0.006 is Yes; below that, No.

variant: C82G A120C A145U C150U C169U U176G
classification: No

variant: C82A A111U A120G A145C C150A C169G U176A
classification: Yes

variant: C82A C150G C169A U176C
classification: Yes

variant: C82U A111G A120U C150U C169G
classification: No

variant: C82G A145G C150U C169A U176C
classification: Yes

variant: A111G A120U C150U U176G
classification: Yes

variant: C82A A120C A145U C150U U176A
classification: Yes

variant: A111U A145C C150G C169A U176C
classification: Yes

variant: C82A A111G A120C A145U C169G U176C
classification: Yes

variant: C82G A111U A145G C150A C169G
classification: Yes

variant: C82A A111U C150G U176A
classification: Yes

variant: C82U A111G A120U A145C C150A C169G U176C
classification: No

variant: C82G A111G A145U C169A U176A
classification: Yes

variant: C82A A111C A145U C150U U176C
classification: Yes

variant: C82G A111G A145C C150G
classification: Yes

variant: C82U A111U A120G A145U C169U U176A
classification: Yes

variant: C82U A111C A120U A145U C169A U176C
classification: No

variant: C82G A120C A145G C150U C169G
classification: Yes

variant: C82G A111C A120G A145C C150U U176C
classification: Yes

variant: C82A A111C A120G A145G C169A
classification: Yes

variant: C82A A111G A120C A145G C150U U176G
classification: Yes

variant: C82U A111C A120U A145C C150U C169G U176A
classification: No

variant: C82G A111U C169U U176C
classification: Yes

variant: C82U A111G A145U C150G C169U U176G
classification: No

variant: C82A A111C A120U A145C C169G
classification: No

variant: C82A A120U A145C C150A C169G U176C
classification: No

variant: C82U A120U A145G C150G C169G U176G
classification: No

variant: C82G A111U A120G A145G C150A C169G U176C
classification: Yes

variant: C82A A120G A145U C169U
classification: Yes

variant: C82G A111C A120U C169G U176G
classification: No

variant: C82U A120C A145G C169G
classification: Yes

variant: C82G A111U A120U C150U C169A U176A
classification: No

variant: C82G A111U A120U C169G
classification: No

variant: A111C A120C A145G C150G U176C
classification: Yes

variant: C82G A111C A145G C169G U176A
classification: Yes

variant: C82U A111C A120G A145U C169U U176A
classification: Yes

variant: C82U A111C A120U A145C C150A U176G
classification: No

variant: C82A A111G A145U C150G C169U U176A
classification: Yes

variant: C82G A111G A120G A145U C150A C169U U176C
classification: Yes

variant: C82G A111C A120U A145G C150U C169G U176A
classification: No

variant: C82A A120U C150G C169G U176C
classification: No

variant: A111U A120G A145U C150A C169A U176G
classification: No

variant: C82A A111U A120U A145C C169G U176A
classification: No

variant: A111C A120G A145G C150G C169G U176C
classification: Yes

variant: C82A A111C A120C A145G C150A C169G U176A
classification: Yes
